Each recorded value in this set is attributed to PubChem BioAssay AID652115.

- Tested On: NAD-dependent protein deacylase sirtuin-5, mitochondrial (Homo sapiens)
- Test Name: blockers of sirtuin-5 deacylase activity – biochemical, fluorescence imaging, single point, set 5, primary screen (AID 652115)
- Recorded Conditions: Purified SirT5, succinyl-peptide AMC, trypsin-coupled fluorescence; at 15 µM
Out of some 330,000 compounds screened, about 3,800 (1.2%) were called active. No stated cut-off is given here; in the data, active means inhibition above about 15%; inconclusive means no clear call, values can overlap the other calls; inactive means below that. The list comes from a sample in which actives are over-represented; it also holds close analogues and randomly drawn compounds.
Outcomes you can answer with include only these: Yes = active, No = inactive

[
  {
    "Compound": "Cc1noc(C)c1NC(=O)N(C)C[C@@H]1Oc2cc(C#CCC(C)C)ccc2S(=O)(=O)N([C@H](C)CO)C[C@@H]1C",
    "Tested On": "NAD-dependent protein deacylase sirtuin-5, mitochondrial (Homo sapiens)",
    "Group Label": "No"
  },
  {
    "Compound": "C[C@@H]1CN([C@@H](C)CO)C(=O)c2cccc(NC(=O)CCCCCC(=O)Nc3ccccc3N)c2O[C@H]1CN(C)C(=O)Nc1ccccc1",
    "Tested On": "NAD-dependent protein deacylase sirtuin-5, mitochondrial (Homo sapiens)",
    "Group Label": "No"
  },
  {
    "Compound": "C[C@H](CO)N1C[C@H](C)[C@@H](CN(C)Cc2cccnc2)Oc2cc(C3=CCCC3)ccc2S1(=O)=O",
    "Tested On": "NAD-dependent protein deacylase sirtuin-5, mitochondrial (Homo sapiens)",
    "Group Label": "No"
  },
  {
    "Compound": "C[C@@H]1CN([C@H](C)CO)S(=O)(=O)c2ccc(-c3cncnc3)cc2O[C@H]1CN(C)C(=O)Cc1ccccc1",
    "Tested On": "NAD-dependent protein deacylase sirtuin-5, mitochondrial (Homo sapiens)",
    "Group Label": "No"
  },
  {
    "Compound": "O=C(c1cccc(S(=O)(=O)N2CCCC2)c1)N(Cc1ccco1)C1CCS(=O)(=O)C1 (stereo unspecified)",
    "Tested On": "NAD-dependent protein deacylase sirtuin-5, mitochondrial (Homo sapiens)",
    "Group Label": "Yes"
  }
]

Query string: Test call, this compound: "C/C=C/c1ccc2c(c1)O[C@H](CN(C)Cc1cccc(F)c1)[C@H](C)CN([C@H](C)CO)S2(=O)=O"
Result string: Yes

Query string: Test call, this compound: "C[C@@H]1CN([C@H](C)CO)C(=O)c2cccc(NC(=O)c3cnccn3)c2O[C@@H]1CN(C)Cc1ccc(C(=O)Nc2ccccc2N)cc1"
Result string: Yes

Query string: Test call, this compound: "C[C@@H]1CN([C@@H](C)CO)C(=O)c2cccc(NC(=O)c3cnccn3)c2O[C@H]1CN(C)Cc1ccc(-c2ccccc2)cc1"
Result string: No

###

- Tested On: NAD-dependent protein deacylase sirtuin-5, mitochondrial (Homo sapiens) (UniProt Q9NXA8)
- Sequence (Q9NXA8 whole entry, looked up): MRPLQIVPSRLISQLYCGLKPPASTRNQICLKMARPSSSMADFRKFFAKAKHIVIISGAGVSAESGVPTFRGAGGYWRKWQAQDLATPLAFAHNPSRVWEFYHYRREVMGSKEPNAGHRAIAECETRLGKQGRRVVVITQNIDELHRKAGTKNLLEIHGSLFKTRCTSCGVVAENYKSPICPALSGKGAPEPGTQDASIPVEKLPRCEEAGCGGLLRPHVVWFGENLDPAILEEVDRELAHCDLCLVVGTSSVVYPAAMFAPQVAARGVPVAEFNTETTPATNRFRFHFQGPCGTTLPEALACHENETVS
- Test Name: blockers of sirtuin-5 deacylase activity – biochemical, fluorescence imaging, single point, set 5, primary screen (AID 652115)
- Recorded Conditions: Purified SirT5, succinyl-peptide AMC, trypsin-coupled fluorescence; at 15 µM
Hit rate of the full screen: of about 330,000 compounds, about 3,800 (1.2%) were called active. Cut-off read from the data, not from the text of the source: active = inhibition above about 15%; inconclusive = no clear call, values can overlap the other calls; inactive = below that. Shown is part of a subset that was picked to be rich in actives.
Outcomes you can answer with include only these: T for active, F for inactive

[
  {
    "Sample Smiles": "C[C@H](CO)N1C[C@H](C)[C@@H](CN(C)S(=O)(=O)c2ccc(F)cc2)OCCCC[C@H](C)Oc2ccc(NC(=O)CCCN(C)C)cc2C1=O",
    "Group Label": "F"
  }
]

Query string: Test call, this molecule: "C[C@H]1CN([C@@H](C)CO)C(=O)Cc2cc(NS(=O)(=O)c3ccccc3)ccc2O[C@H]1CN(C)Cc1ccc(C(=O)Nc2ccccc2N)cc1"
Result string: T

Query string: Test call, this molecule: "C[C@H]1CN([C@@H](C)CO)C(=O)Cc2cc(NS(=O)(=O)c3ccccc3)ccc2O[C@@H]1CN(C)Cc1ccc(C(=O)Nc2ccccc2N)cc1"
Result string: F

Query string: Test call, this molecule: "O=C(C[C@@H]1CC[C@H](NC(=O)NC2CCCCC2)[C@H](CO)O1)NCc1ccc(F)cc1"
Result string: F

Query string: Test call, this molecule: "C[C@H]1CN([C@@H](C)CO)C(=O)c2cc(-c3cccnc3)cnc2O[C@@H]1CN(C)C(=O)C1CC1"
Result string: F

Query string: Test call, this molecule: "C[C@@H]1CN([C@@H](C)CO)C(=O)Cc2cc(NC(=O)Cc3ccccc3)ccc2O[C@@H]1CN(C)Cc1ccc(Oc2ccccc2)cc1"
Result string: T

Query string: Test call, this molecule: "O=C(C[C@H]1CC[C@H]2[C@@H](COC[C@@H](O)CN2Cc2cccc(C(F)(F)F)c2)O1)NCc1ccncc1"
Result string: F

Query string: Test call, this molecule: "CN(C)Cc1cn(CC[C@H]2CC[C@H](NS(=O)(=O)c3ccccc3)[C@@H](CO)O2)nn1"
Result string: F

Query string: Test call, this molecule: "O=C(C[C@H]1CC[C@H]2[C@@H](COC[C@@H](O)CN2Cc2nccs2)O1)NCc1ccccc1Cl"
Result string: T

Query string: Test call, this molecule: "CC(C)c1nnc(NC(=O)CCC(=O)N2CCN(c3cccc(Cl)c3)CC2)s1"
Result string: F

Query string: Test call, this molecule: "COc1ccc(NC(=O)CSc2ccc(-c3ccco3)nn2)c(OC)c1"
Result string: F

Query string: Test call, this molecule: "C[C@@H]1CN([C@H](C)CO)C(=O)CCCn2cc(nn2)CO[C@@H]1CN(C)Cc1ccccc1C(=O)O"
Result string: F

Query string: Test call, this molecule: "CCCc1nnc(NC(=O)CCC(=O)N2CCN(S(=O)(=O)c3ccc(OC)cc3)CC2)s1"
Result string: F

Query string: Test call, this molecule: "CCC(=O)N1CC(=O)N2[C@@H](CO)[C@@H](c3ccc(C#CC4CCCC4)cc3)[C@@H]2C1"
Result string: F

Query string: Test call, this molecule: "C[C@H]1CN([C@@H](C)CO)C(=O)Cc2cc(NC(=O)Cn3cnnn3)ccc2O[C@@H]1CN(C)Cc1ccc(-c2ccccc2)cc1"
Result string: F

Query string: Test call, this molecule: "Nc1[nH]c(C(=O)c2ccccc2)c(-c2ccc(Cl)cc2Cl)c1C(=O)c1ccccc1"
Result string: F
